melting point reference
Where a name gives a salt, the structure may show the parent alone.

Below, 5 molecules whose answers are already recorded.
INSERT INTO results (molecule, endpoint_value) VALUES
  ('Cc1ccc(C(=O)NCC(C)(C)NCC(=O)N2CCC[C@H]2C#N)cc1 [Ex. 2C]', '40 to 42 °C'),
  ('N#C[C@@H]1CCCN1C(=O)CN[C@H]1CC[C@H](Oc2cccc(Cl)c2)CC1 (as salt: hydrochloride) [Ex. 2HH]', '72 to 74 °C'),
  ('N#C[C@@H]1CCCN1C(=O)CNC1CCC(NC(=O)c2ccccc2)CC1 (stereo partly drawn) [Ex. 2N]', '78 to 80 °C'),
  ('N#C[C@@H]1CCCN1C(=O)CNC1CCN(C(=O)c2ccc(Cl)cc2)CC1 (as salt: hydrochloride) [Ex. 4B]', '152 to 155 °C'),
  ('COc1ccc(-c2csc(N3CCC(NCC(=O)N4CCC[C@H]4C#N)CC3)n2)cc1 (as salt: hydrochloride) [Ex. 2MM]', '154 to 156 °C');

### Prompt Return reported melting point. Input molecule: CC(C)(CNc1ccc(C(F)(F)F)cn1)NCC(=O)N1CCC[C@H]1C#N (as salt: hydrochloride) [Ex. 2B]
### Response 170 to 172 °C

### Prompt Return reported melting point. Input molecule: CC(C)(CNc1ccc(C#N)cn1)NCC(=O)N1CCC[C@H]1C#N [Ex. 2A]
### Response 47 to 49 °C

### Prompt Return reported melting point. Input molecule: N#C[C@@H]1CCCN1C(=O)CNC1CCN(S(=O)(=O)c2ccccc2)CC1 (as salt: hydrochloride) [Ex. 4D]
### Response > 300 °C

* * *

Biological target: DPP-IV activity in rat plasma (Rattus norvegicus)
Construct: from tissue; host or cells: rat plasma
Sequence (P14740 38-767 limits assumed): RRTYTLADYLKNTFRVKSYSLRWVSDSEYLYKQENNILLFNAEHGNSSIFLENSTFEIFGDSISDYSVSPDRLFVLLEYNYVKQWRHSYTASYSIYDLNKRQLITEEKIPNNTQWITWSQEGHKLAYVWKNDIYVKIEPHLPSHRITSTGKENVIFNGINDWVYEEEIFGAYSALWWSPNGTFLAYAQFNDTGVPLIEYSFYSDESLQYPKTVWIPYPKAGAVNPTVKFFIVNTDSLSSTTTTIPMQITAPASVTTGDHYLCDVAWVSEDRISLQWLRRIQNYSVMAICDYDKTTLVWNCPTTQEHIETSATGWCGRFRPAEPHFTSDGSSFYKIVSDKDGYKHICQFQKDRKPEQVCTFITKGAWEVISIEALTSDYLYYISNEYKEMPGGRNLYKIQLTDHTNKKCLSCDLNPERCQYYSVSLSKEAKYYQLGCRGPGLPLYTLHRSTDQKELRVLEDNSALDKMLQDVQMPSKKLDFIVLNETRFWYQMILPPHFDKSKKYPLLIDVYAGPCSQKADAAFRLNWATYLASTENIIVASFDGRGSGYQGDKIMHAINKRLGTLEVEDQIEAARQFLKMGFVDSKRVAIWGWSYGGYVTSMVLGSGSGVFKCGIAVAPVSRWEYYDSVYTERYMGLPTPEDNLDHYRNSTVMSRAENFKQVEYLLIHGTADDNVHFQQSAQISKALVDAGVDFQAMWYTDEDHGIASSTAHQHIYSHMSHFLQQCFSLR
Assay: Rat plasma DPP-IV assay
Assay type: biochemical
Conditions: substrate H-Gly-Pro-AMC
# 1 = IC50 below 30 nM (exclusive); 0 = IC50 at/above 30 nM

INSERT INTO measurements (molecule, class) VALUES
  ('CC(C)(CNC(=O)c1ccc(Cl)cc1)NCC(=O)N1CCC[C@H]1C#N', 0);

### Prompt Item Cc1ccc(C(=O)NCC(C)(C)NCC(=O)N2CCC[C@H]2C#N)cc1 : IC50 beneath 30 nM, strictly?
### Response 1

### Prompt Item COc1ccc(-c2csc(N3CCC(NCC(=O)N4CCC[C@H]4C#N)CC3)n2)cc1 : IC50 beneath 30 nM, strictly?
### Response 0

### Prompt Item N#C[C@@H]1CCCN1C(=O)CN[C@H]1CC[C@H](NS(=O)(=O)c2cccs2)CC1 : IC50 beneath 30 nM, strictly?
### Response 1

### Prompt Item CC(C)(CNc1ncccc1Cl)NCC(=O)N1CCC[C@H]1C#N : IC50 beneath 30 nM, strictly?
### Response 0

* * *

Counter-ions that a name gives are not always drawn.
Measured Attribute: melting point

Below, 5 compounds whose answers are already recorded.
INSERT INTO assay_data (compound, endpoint_value) VALUES
  ('N#C[C@@H]1CCCN1C(=O)CN[C@H]1CC[C@H](Oc2cccc(C(F)(F)F)c2)CC1 (as salt: hydrochloride)', '120 to 122 °C'),
  ('CC(C)(C)C(=O)NC1CCC(NCC(=O)N2CCC[C@H]2C#N)CC1 (some centres unmarked) (as salt: hydrochloride)', '290 to 294 °C'),
  ('N#CC1CCCN1C(=O)CNC1CCC(Oc2ccc(Cl)cc2)CC1 (centres unmarked) (as salt: hydrochloride)', '232 to 235 °C'),
  ('N#C[C@@H]1CCCN1C(=O)CN[C@H]1CC[C@H](NC(=O)c2ccc(Cl)cc2)CC1 (as salt: hydrochloride)', '260 to 263 °C'),
  ('N#C[C@@H]1CCCN1C(=O)CN[C@H]1CC[C@H](NS(=O)(=O)c2ccc(Cl)cc2)CC1 (as salt: hydrochloride)', '160 to 162 °C');

### Prompt Return reported melting point. Input compound: N#C[C@@H]1CCCN1C(=O)CNC1CCN(C(=O)Nc2ccc(Cl)cc2)CC1 (as salt: hydrochloride)
### Response 172 to 174 °C

### Prompt Return reported melting point. Input compound: N#C[C@@H]1CCCN1C(=O)CNC1CCN(c2nc(-c3ccccc3)cs2)CC1
### Response 141 to 143 °C

### Prompt Return reported melting point. Input compound: CC(C)(CNC(=O)C(C)(C)C)NCC(=O)N1CCC[C@H]1C#N (as salt: hydrochloride)
### Response 225 to 227 °C

### Prompt Return reported melting point. Input compound: CCCCCC12CCC(NCC(=O)N3CCC[C@H]3C#N)(CC1)CC2 (as salt: hydrochloride)
### Response 99 to 102 °C

### Prompt Return reported melting point. Input compound: CC(C)(Cc1ccccc1)NCC(=O)N1CCC[C@H]1C#N (as salt: hydrochloride)
### Response 212 to 214 °C

### Prompt Return reported melting point. Input compound: CC(C)N(C(=O)N1CCC(NCC(=O)N2CCC[C@H]2C#N)CC1)C(C)C (as salt: hydrochloride)
### Response 82 to 84 °C

### Prompt Return reported melting point. Input compound: N#C[C@@H]1CCCN1C(=O)CNC1CCC(NS(=O)(=O)c2ccccc2)CC1 (some centres unmarked) (as salt: hydrochloride)
### Response 120 to 122 °C
